- assay_comment: splicing luciferase reporter signal modulators, primary screen, spliceosome inhibition project, cell-based, HEK293, splice +/- reporter (AID 1101);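 further: HEK293 cells carrying a splicing-competent luciferase reporter gene; test concentration not given here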
- reported_conditions: luminescence, 24 h, higher = more signal, called active from +8 up or from −8 down
value_type: z-score
// no unit string in output, number only

# input Give its z-score value. Item: COCCOC(=O)N1C(=O)[C@@]2(c3cc(C#Cc4ccc(OC)cc4)ccc31)[C@H](c1ccc(O)cc1)N1[C@H](c3ccccc3)[C@H](c3ccccc3)OC(=O)[C@H]1[C@@H]2C(N)=O
# output -1.95

# input Which measured z-score value corresponds to CCOC(=O)NN=C1C[C@@H](O)[C@@H](O)[C@@H]2[C@@H]3C(=O)N(CC)C(=O)[C@@H]3CC[C@@H]12 ?
# output 0.379

# input May I ask what z-score has been recorded for C[C@@H]1CC[C@H]2C(=O)O[C@H](COc3ccc(C(C)(C)C)cc3)CN2[C@H]1c1ccc(Br)cc1 ?
# output 0.148

# input Can you share its z-score? I mean this molecule: CCCNC(=O)[C@@H]1c2ccccc2C(=O)N(c2ccc(C)cn2)[C@H]1c1ccc(CO)cc1
# output 1.12

# input I'd like to know its z-score. The molecule in question is C[C@H]1Cc2c(-c3ccccc3)nc3c(c2CO1)CN(CCOc1ccccc1)CC3
# output -0.512

# input Item under review: CCOC(=O)NN=C1C[C@@H](O)[C@@H](O)[C@@H]2[C@@H]3C(=O)N(C4CCCCC4)C(=O)[C@@H]3CC[C@@H]12 . Reported z-score?
# output 1.06

# input Quick check: z-score of CCCNC(=O)OC[C@H]1O[C@H](CCON=C[C@@H](OC)[C@H](C)C=CCC(=O)OC)C=C[C@@H]1Oc1ccc(OC)cc1 ?
# output -0.213

* * *

- assay_comment: small-molecule microarray binders of probe aEGFR, primary screen, biochemical, biotinylated probe, 635/667 nm fluorescence (AID 1097);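 further: probe is a biotinylated anti-EGFR antibody binding compounds printed on slides; score combines fluorescence near 667 nm and signal to noise of each spot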
- reported_conditions: higher = more signal
Classify by measured composite z-score: 1 if it is equal to or exceeds -0.04, 0 if it is smaller.

# input Given COc1ccc([Si](C)(C)[C@@H]2[C@@H](CCO)O[C@]3(C(=O)N(Cc4ccc(NC(C)=O)cc4)c4ccccc43)[C@H]2C)cc1 , state whether its composite z-score is at least -0.04.
# output 1

# input Hi, just wondering whether O=C1[C@H]2[C@H]3[C@H](O)[C@H](O)CC(=NOC[C@@H](O)COCc4ccco4)[C@@H]3CC[C@H]2C(=O)N1c1ccc(F)cc1F shows composite z-score of -0.04 or higher.
# output 0

# input Check if composite z-score >= -0.04 (inclusive). Item: CCOC(=O)CCN1C(=O)[C@H]2[C@H]3[C@H](O)[C@H](O)CC(=O)[C@H]3CC[C@H]2C1=O
# output 1

# input hey, is composite z-score for this one >= -0.04? C[C@@H](c1ccccc1)N1C(=O)[C@H]2[C@H]3[C@H](O)[C@H](O)CC(=NOC[C@@H](O)COCc4ccco4)[C@@H]3CC[C@H]2C1=O
# output 0

# input Does the reported composite z-score for O=C1CCCC2OC12C(O)CCc1ccccc1 (stereo not drawn) fall at or above the -0.04 mark?
# output 1

# input Determine whether this molecule has composite z-score no lower than -0.04: COC(=O)C1=C(C)[C@@H](O)[C@@H](C)[C@H](c2c(OC)c(OC)c(C)c(OC)c2OC)O1
# output 0

# input // inclusive: composite z-score at least -0.04? input: C#CCCCON=C1C[C@@H](O)[C@@H](O)[C@@H]2[C@@H]3C(=O)N([C@@H](C)c4ccccc4)C(=O)[C@@H]3CC[C@H]12
# output 1

# input Check the entry C=CC[C@@H]1C=C[C@H](ON=C(C)CCN2CCc3nc(CC)c(CC)cc3C2)[C@@H](CO)O1 : does composite z-score equal or exceed -0.04?
# output 0

* * *

- assay_comment: modulators of HCV replicon luciferase signal, primary screen, HCV replication inhibitor project, Huh7 cells, luciferase reporter (AID 1109);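 further: huh7 hepatoma cells harbouring a luciferase neomycin HCV replicon reporter; luciferase luminescence as measure of HCV replicon replication; test concentration not given here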
- reported_conditions: 48 h, higher = more signal
If the reported z-score equals or exceeds -0.5, assign YES. If not, assign NO.

# input Check the entry O=C1C[C@@H](O)[C@@H](O)[C@@H]2[C@@H]3C(=O)N(c4ccc(F)cc4F)C(=O)[C@@H]3CC[C@@H]12 : does z-score equal or exceed -0.5?
# output YES

# input # bool: z-score of O=C1O[C@@H](c2ccccc2)[C@@H](c2ccccc2)N2[C@@H](c3ccc(O)cc3)[C@]3(C(=O)Nc4ccccc43)[C@@H](C(=O)O)[C@H]12 >= -0.5
# output NO

# input Item CCc1cc2c(nc1CC)CCN(CCC(C)=NOC(C)CN1CCCc3nc(C)c(C)cc31)C2 (configuration not stated) with z-score of -0.5 or above?
# output NO

# input z-score >= -0.5 for CCOC(=O)[C@H](Cc1ccccc1)NC(=O)CCC1CC(OC(=O)NCc2ccc3c(c2)OCO3)CC2(CCCC(COC(=O)NCc3cccc(C(F)(F)F)c3)O2)O1 (some centres not stated) ?
# output NO

# input Tell me whether z-score is at least -0.5 here: C[C@H](c1ccccc1)N1C(=O)[C@H]2[C@H]3[C@H](O)[C@H](O)CC(=O)[C@@H]3CC[C@H]2C1=O
# output NO

# input Could you please find out whether COC(=O)CC=C[C@@H](C)[C@H](OC)c1ccccc1Br has z-score that meets -0.5 or exceeds it?
# output YES

* * *

- assay_comment: PSAC antagonists in infected red cells, primary screen, cell-based, P. falciparum Indochina, OD700, 18 h (AID 1157)
- reported_conditions: P. falciparum Indochina infected erythrocytes, osmotic lysis OD700, 18 h; higher = more signal, called active from +8 up or from −8 down
Record 1 (yes) whenever z-score is at 0.06 or higher; record 0 (no) when lower.

# input Textbook exercise: given the entry COCCCNC(=O)[C@]1(CCC(=O)OC(C)(C)C)N=C(c2ccc(OCCCO)cc2)O[C@@H]1c1ccccc1N=[N+]=[N-] , state whether its z-score is greater than or equal to 0.06.
# output 1 (yes)

# input Does z-score meet or surpass 0.06 for COC(=O)C1=C(C)N(Cc2ccccc2)[C@]23O[C@](C(=O)OC)(C(=O)N2[C@@H]1c1ccccc1)[C@H]1CCOC(=O)[C@H]13 ?
# output 1 (yes)

# input Does z-score meet or surpass 0.06 for Cc1cc2c(nc1C)CCCN2CC(C)ON=C1[C@H]2CCn3c(=O)n(-c4ccccc4)c(=O)n3[C@H]2[C@H](O)[C@@H]2O[C@H]12 (stereo not given in full) ?
# output 1 (yes)

# input Hello, I need to know if CCN1C(=O)[C@H]2[C@H]3[C@H](O)[C@H](O)CC(=NOCC=C(C)CCC=C(C)C)[C@H]3CC[C@H]2C1=O has measured z-score not below 0.06. Thanks!
# output 0 (no)

# input Kindly determine if z-score recorded for CC(=O)OC[C@H]1O[C@H](C#CCCCc2ccccc2)C=C[C@@H]1OC(C)=O is above or exactly 0.06.
# output 1 (yes)

# input Given the entry O=C(NN=C1C[C@@H](O)[C@@H](O)[C@@H]2[C@@H]3C(=O)N(c4cccc(Oc5ccccc5)c4)C(=O)[C@@H]3CC[C@@H]12)OCc1ccccc1 , answer whether its z-score meets or surpasses 0.06.
# output 0 (no)

# input Record CCN1C(=O)[C@H]2[C@H]3[C@H](O)C=CC(=O)[C@@H]3CC[C@H]2C1=O ; criterion: z-score no lower than 0.06. Met?
# output 0 (no)

# input Reported z-score at or above 0.06? CC(C)C[C@@H]1NC(=O)[C@H]2C[C@@H](C(=O)NCCCCCCN(C)C)[C@@H](c3cccc(OCCO)c3)N2C1=O
# output 1 (yes)

# input Quick check: does CO[C@@H]1COC(=O)CC=C[C@@H](C)[C@@H]2C=C[C@@H](O)[C@@H](COC(=O)CC=C[C@H]1C)O2 have z-score greater than or equal to 0.06?
# output 0 (no)

# input Determine whether this compound has z-score no lower than 0.06: CCN1C(=O)[C@H]2[C@H]3[C@H](O)[C@H](O)CC(=NOC[C@@H](C)[C@H](OCc4ccccc4)C(C)C)[C@@H]3CC[C@H]2C1=O
# output 1 (yes)

# input Is z-score at least 0.06? Consider CO[C@@H]1COC(=O)[C@H](C)NC(=O)[C@@H](C)COC(=O)CCC[C@H]1C
# output 1 (yes)

# input API: above_or_equal(metric=z-score, cutoff=0.06) for item CN1C(=O)C2C(C1=O)C1C=C(CCCO)C2C(c2ccc(CN3CCCC3)cc2)N1C (stereo not given)
# output 1 (yes)

# input Item COc1ccc(O[C@H]2C=C[C@@H](c3ccccc3)O[C@@H]2COC(=O)CCC(C)=NOC(C)CN2CCCCc3nc(C)c(C)cc32)cc1 (stereo not given in full) with z-score of 0.06 or above?
# output 1 (yes)

# input Kindly determine if z-score recorded for COc1ccccc1CN1C(=O)c2ccccc2[C@@]2(Cc3ccccc3N(C(C)C)C2=O)[C@@H]1c1ccc(CO)cc1 is above or exactly 0.06.
# output 0 (no)

# input Is z-score for CC(CCN1CCc2nc(-c3ccccc3)c(-c3ccccc3)cc2C1)=NO[C@@H](C)c1cn([C@H](CO)Cc2ccccc2)nn1 at or above 0.06?
# output 0 (no)
